Test system: Pseudomonas aeruginosa ATCC 9027
Test: Antibacterial activity, agar dilution MIC
Format: cell-based
Conditions: ATCC9027, read-out: MIC P. aeruginosa
readout-label: MIC (µg/mL)
Numeric only. Scale: µg/mL

Consider the following illustrative entries.
| input-smiles | scale-unit | MIC |
| --- | --- | --- |
| O=C(O)c1cn(C2CC2)c2cc(N3CCN(C(=S)c4ccc([N+](=O)[O-])cc4)CC3)c(F)cc2c1=O | µg/mL | 1.56 |
| O=C(O)c1cn(C2CC2)c2cc(N3CCN(C(=S)c4cccc(F)c4)CC3)c(F)cc2c1=O | µg/mL | 0.048 |
| O=C(O)c1cn(C2CC2)c2cc(N3CCN(C(=S)c4ccc(Br)cc4)CC3)c(F)cc2c1=O | µg/mL | 0.848 |

State its MIC for this compound: O=C(O)c1cn(C2CC2)c2cc(N3CCN(C(=S)c4cccc(O)c4)CC3)c(F)cc2c1=O
0.781

State its MIC for this compound: O=C(O)c1cn(C2CC2)c2cc(N3CCN(C(=S)c4ccc(Cl)cc4)CC3)c(F)cc2c1=O
0.781

State its MIC for this compound: O=C(O)c1cn(C2CC2)c2cc(N3CCN(C(=S)c4ccc(F)cc4)CC3)c(F)cc2c1=O
0.781

State its MIC for this compound: O=C(O)c1cn(C2CC2)c2cc(N3CCN(C(=S)c4ccccc4F)CC3)c(F)cc2c1=O
2.5

* * *

# reported MIC; entries follow
System: Pseudomonas aeruginosa ATCC 9027
Assay: Antibacterial activity, agar dilution MIC
Type: cell-based
Details: ATCC9027, read-out: MIC P. aeruginosa
Numeric only. Scale: µg/mL

| input-smiles | reported-value |
| --- | --- |
| O=C(O)c1cn(C2CC2)c2cc(N3CCN(C(=S)c4cccc(Oc5ccccc5)c4)CC3)c(F)cc2c1=O | 3.12 |
| O=C(O)c1cn(C2CC2)c2cc(N3CCNCC3)c(F)cc2c1=O | 0.048 |
| COc1ccc(C(=S)N2CCN(c3cc4c(cc3F)c(=O)c(C(=O)O)cn4C3CC3)CC2)cc1 | 3.12 |

State its MIC for this compound: Cc1ccc(C(=S)N2CCN(c3cc4c(cc3F)c(=O)c(C(=O)O)cn4C3CC3)CC2)cc1
3.12

State its MIC for this compound: O=C(O)c1cn(C2CC2)c2cc(N3CCN(C(=S)c4cccc([N+](=O)[O-])c4)CC3)c(F)cc2c1=O
0.39

* * *

# reported MIC; entries follow
Tested on: Pseudomonas aeruginosa ATCC 9027
Assay: Antibacterial activity, agar dilution MIC
Assay type: cell-based
Details: ATCC9027, read-out: MIC P. aeruginosa
Answer format: number, then unit.

Consider the following illustrative entries.
| molecule | MIC |
| --- | --- |
| O=C(O)c1cn(C2CC2)c2cc(N3CCN(C(=S)c4cccc(Cl)c4)CC3)c(F)cc2c1=O [Compound 3m] | 6.25 µg/mL |
| O=C(O)c1cn(C2CC2)c2cc(N3CCN(C(=S)c4ccccc4)CC3)c(F)cc2c1=O [Compound 3a] | 6.25 µg/mL |

From here, focus on the item given below.
State its MIC for this molecule: COc1cccc(C(=S)N2CCN(c3cc4c(cc3F)c(=O)c(C(=O)O)cn4C3CC3)CC2)c1 [Compound 3b]
3.12 µg/mL
